Tested on: Diabrotica balteata (rootworm - larvae)
Test: Insecticidal mortality test, contact, rootworm
Type: in vivo
Conditions: rate 100 ppm, filter paper, 3 days
READOUT_NAME: grading of mortality DB

Considering CC1(C)[C@H](C(=O)OCc2cccc(Oc3ccc(Cl)cc3)c2)[C@@H]1/C=C(\Cl)C(F)(F)F (racemic) [Compound 5] , its grading of mortality DB with Diabrotica balteata (rootworm - larvae) was recorded as 5 (50 to 59%)

Considering CC1(C)[C@H](/C=C(\Cl)C(F)(F)F)[C@@H]1C(=O)OC(C#N)c1cccc(Oc2ccc(Br)cc2)c1 (mixture of isomers) [Compound 6] , its grading of mortality DB with Diabrotica balteata (rootworm - larvae) was recorded as 5 (50 to 59%)

Considering CC1(C)[C@H](/C=C(\Cl)C(F)(F)F)[C@@H]1C(=O)OC(C#N)c1cccc(Oc2ccc(F)cc2)c1 (mixture of isomers) [Compound 7] , its grading of mortality DB with Diabrotica balteata (rootworm - larvae) was recorded as 9 (90 to 100%)

Considering CC1(C)[C@H](C(=O)OC(C#N)c2cccc(Oc3ccc(Cl)cc3)c2)[C@@H]1/C=C(\Cl)C(F)(F)F (some centres unmarked) [Compound 1] , its grading of mortality DB with Diabrotica balteata (rootworm - larvae) was recorded as 9 (90 to 100%)

Considering CC1(C)[C@H](/C=C(\Cl)C(F)(F)F)[C@H]1C(=O)OC(C#N)c1cccc(Oc2ccc(Cl)cc2)c1 (some centres unmarked) [Compound 8] , its grading of mortality DB with Diabrotica balteata (rootworm - larvae) was recorded as 5 (50 to 59%)

---

Provide the reported grading of mortality MD of each item.
Test system: Musca domestica (houseflies - adults)
Experiment: Insecticidal mortality test, contact, houseflies
Format: in vivo
Details: rate 10 ppm, cotton wool/milk, sugar, 1 day

Sure, the documented grading of mortality MD for CC1(C)[C@H](/C=C(\Cl)C(F)(F)F)[C@@H]1C(=O)OC(C#N)c1cccc(Oc2ccc(Br)cc2)c1 (mixture of isomers) is 6 (60 to 69%)

Sure, the documented grading of mortality MD for CC1(C)[C@H](/C=C(\Cl)C(F)(F)F)[C@@H]1C(=O)OC(C#N)c1cccc(Oc2ccc(F)cc2)c1 (mixture of isomers) is 0 (less than 10% mortality)

Sure, the documented grading of mortality MD for CC1(C)[C@H](C(=O)OCc2cccc(Oc3ccc(Cl)cc3)c2)[C@@H]1/C=C(\Cl)C(F)(F)F (racemic) is 1 (from 10 to 19%)

Sure, the documented grading of mortality MD for CC1(C)[C@H](/C=C(\Cl)C(F)(F)F)[C@H]1C(=O)OC(C#N)c1cccc(Oc2ccc(Cl)cc2)c1 (stereo partly shown) is 9 (90 to 100%)

---

Assay: Fish toxicity, young trout
Conditions: in vivo, compounds of the invention
Provide the reported LC50 of each item.
Give the value, in units of mg/L, as a plain number.

Sure, the documented LC50 for CC1(C)[C@H](C(=O)OC(C#N)c2cccc(Oc3ccc(Cl)cc3)c2)[C@@H]1/C=C(\Cl)C(F)(F)F (stereo partly drawn) is 20

Sure, the documented LC50 for CC1(C)[C@H](C(=O)OCc2cccc(Oc3ccc(Cl)cc3)c2)[C@@H]1/C=C(\Cl)C(F)(F)F (racemic) is 10

Sure, the documented LC50 for CC1(C)[C@H](/C=C(\Cl)C(F)(F)F)[C@@H]1C(=O)OC(C#N)c1cccc(Oc2ccc(F)cc2)c1 (mixture of isomers) is 1

---

Tested on: Diabrotica balteata (rootworm - larvae)
Assay: Insecticidal mortality test, contact, rootworm
Assay type: in vivo
Conditions: rate 10 ppm, filter paper, 3 days
READOUT_NAME: grading of mortality DB

Sure, the documented grading of mortality DB for CC1(C)[C@H](/C=C(\Cl)C(F)(F)F)[C@@H]1C(=O)OC(C#N)c1cccc(Oc2ccc(Br)cc2)c1 (mixture of isomers) is 3 (30 to 39%)

Sure, the documented grading of mortality DB for CC1(C)[C@H](C(=O)OCc2cccc(Oc3ccc(Cl)cc3)c2)[C@@H]1/C=C(\Cl)C(F)(F)F (racemic) is 3 (30 to 39%)

Sure, the documented grading of mortality DB for CC1(C)[C@H](/C=C(\Cl)C(F)(F)F)[C@H]1C(=O)OC(C#N)c1cccc(Oc2ccc(Cl)cc2)c1 (stereo partly shown) is 0 (less than 10% mortality)

Sure, the documented grading of mortality DB for CC1(C)[C@H](/C=C(\Cl)C(F)(F)F)[C@@H]1C(=O)OC(C#N)c1cccc(Oc2ccc(F)cc2)c1 (mixture of isomers) is 5 (50 to 59%)

---

System: Plutella xylostella (diamond back moth - larvae)
Assay: Insecticidal mortality test, residual, diamond back moth
Format: in vivo
Conditions: rate 10 ppm, cabbage leaves, 3 days
Protocol: The activity of the compound was determined using a variety of insect pests. The compound was used in the form of liquid preparations containing 100, 50, 25, 10 or […] p.p.m. by weight of the compound. The preparations were made by dissolving the compound in a mixture of solvents consisting of 4 parts by volume of acetone and 1 part by volume of diacetone alcohol. […]
READOUT_NAME: grading of mortality PX

Considering CC1(C)[C@H](/C=C(\Cl)C(F)(F)F)[C@@H]1C(=O)OC(C#N)c1cccc(Oc2ccc(Br)cc2)c1 (mixture of isomers) [Compound 6] , its grading of mortality PX with Plutella xylostella (diamond back moth - larvae) was recorded as 6 (60 to 69%)

Considering CC1(C)[C@H](C(=O)OCc2cccc(Oc3ccc(Cl)cc3)c2)[C@@H]1/C=C(\Cl)C(F)(F)F (racemic) [Compound 5] , its grading of mortality PX with Plutella xylostella (diamond back moth - larvae) was recorded as 0 (less than 10% mortality)

Considering CC1(C)[C@H](/C=C(\Cl)C(F)(F)F)[C@@H]1C(=O)OC(C#N)c1cccc(Oc2ccc(F)cc2)c1 (mixture of isomers) [Compound 7] , its grading of mortality PX with Plutella xylostella (diamond back moth - larvae) was recorded as 9 (90 to 100%)

Considering CC1(C)[C@H](/C=C(\Cl)C(F)(F)F)[C@H]1C(=O)OC(C#N)c1cccc(Oc2ccc(Cl)cc2)c1 (stereo partly shown) [Compound 8] , its grading of mortality PX with Plutella xylostella (diamond back moth - larvae) was recorded as 8 (80 to 89%)

---

Test: Fish toxicity, young carp
Settings: in vivo, compounds of the invention
READOUT_NAME: LC50 (µg/mL)
Give the value, in units of µg/mL, as a plain number.

Sure, the documented LC50 for CC1(C)[C@H](/C=C(\Cl)C(F)(F)F)[C@@H]1C(=O)OC(C#N)c1cccc(Oc2ccc(Br)cc2)c1 (mixture of isomers) is 10

---

Tested on: Plutella xylostella (diamond back moth - larvae)
Assay: Insecticidal mortality test, residual, diamond back moth
Assay type: in vivo
Details: rate 100 ppm, cabbage leaves, 3 days
READOUT_NAME: grading of mortality PX

Sure, the documented grading of mortality PX for CC1(C)[C@H](/C=C(\Cl)C(F)(F)F)[C@@H]1C(=O)OC(C#N)c1cccc(Oc2ccc(Br)cc2)c1 (mixture of isomers) is 7 (70 to 79%)

Sure, the documented grading of mortality PX for CC1(C)[C@H](/C=C(\Cl)C(F)(F)F)[C@@H]1C(=O)OC(C#N)c1cccc(Oc2ccc(F)cc2)c1 (mixture of isomers) is 9 (90 to 100%)

Sure, the documented grading of mortality PX for CC1(C)[C@H](C(=O)OC(C#N)c2cccc(Oc3ccc(Cl)cc3)c2)[C@@H]1/C=C(\Cl)C(F)(F)F (some centres unmarked) is 9 (90 to 100%)

Sure, the documented grading of mortality PX for CC1(C)[C@H](C(=O)OCc2cccc(Oc3ccc(Cl)cc3)c2)[C@@H]1/C=C(\Cl)C(F)(F)F (racemic) is 9 (90 to 100%)

Sure, the documented grading of mortality PX for CC1(C)[C@H](/C=C(\Cl)C(F)(F)F)[C@H]1C(=O)OC(C#N)c1cccc(Oc2ccc(Cl)cc2)c1 (some centres unmarked) is 9 (90 to 100%)
